Assay: Selectivity ratio of IC50 for human BJeH cells to IC50 for human RAS-G12V overexpressing BJeLR cells
Type: ADME, cell-based
Settings: BJeH cells and RAS-G12V overexpressing BJeLR cells, read-out: Ratio IC50
observable: selectivity ratio

Reported selectivity ratio ( `CC(C)Oc1ccc(C=O)cc1-n1c(CN2CCN(C(=O)COc3ccc(Cl)cc3)CC2)nc2ccccc2c1=O` ) = 15

Lab book: selectivity ratio of `C=CCN1CCN(CC(=O)c2ccc(OC(C)C)c(-n3c(CN4CCN(C(=O)COc5ccc(Cl)cc5)CC4)nc4ccccc4c3=O)c2)CC1` noted as 1.5

Documented selectivity ratio of `CC(C)Oc1ccc(C(=O)C(F)(F)F)cc1-n1c(CN2CCN(C(=O)COc3ccc(Cl)cc3)CC2)nc2ccccc2c1=O` : 8

Reported selectivity ratio of `CC(C)Oc1ccc(CN2CCNCC2)cc1-n1c(CN2CCN(C(=O)COc3ccc(Cl)cc3)CC2)nc2ccccc2c1=O` : 3

Consider `CC(C)Oc1ccc(C(=O)Cn2ccnc2)cc1-n1c(CN2CCN(C(=O)COc3ccc(Cl)cc3)CC2)nc2ccccc2c1=O` . Its measured selectivity ratio is 42

For record `CC(C)Oc1ccc(C(=O)CN2CCOCC2)cc1-n1c(CN2CCN(C(=O)COc3ccc(Cl)cc3)CC2)nc2ccccc2c1=O` the listed selectivity ratio is 5

Value of measured selectivity ratio for the entry `COc1ccc(CN2CCN(CC(=O)c3ccc(OC(C)C)c(-n4c(CN5CCN(C(=O)COc6ccc(Cl)cc6)CC5)nc5ccccc5c4=O)c3)CC2)cc1` : 13

Sample `CC(C)Oc1ccc(C(=O)CN2CCN(C)CC2)cc1-n1c(CN2CCN(C(=O)COc3ccc(Cl)cc3)CC2)nc2ccccc2c1=O` ; selectivity ratio observed: 1.9
